target: EGFR del19/C797S (Homo sapiens, UniProt P00533, C797S/DEL746-750); test: Biochemical EGFR kinase assay (Lance Ultra TR-FRET), double mutant del19/C797S; settings: IC50 del19/C797S (nM) 100 μM ATP, 100 μM ATP
Sequence (P00533 with tags, fused parts or gaps DEL746-750/C797S): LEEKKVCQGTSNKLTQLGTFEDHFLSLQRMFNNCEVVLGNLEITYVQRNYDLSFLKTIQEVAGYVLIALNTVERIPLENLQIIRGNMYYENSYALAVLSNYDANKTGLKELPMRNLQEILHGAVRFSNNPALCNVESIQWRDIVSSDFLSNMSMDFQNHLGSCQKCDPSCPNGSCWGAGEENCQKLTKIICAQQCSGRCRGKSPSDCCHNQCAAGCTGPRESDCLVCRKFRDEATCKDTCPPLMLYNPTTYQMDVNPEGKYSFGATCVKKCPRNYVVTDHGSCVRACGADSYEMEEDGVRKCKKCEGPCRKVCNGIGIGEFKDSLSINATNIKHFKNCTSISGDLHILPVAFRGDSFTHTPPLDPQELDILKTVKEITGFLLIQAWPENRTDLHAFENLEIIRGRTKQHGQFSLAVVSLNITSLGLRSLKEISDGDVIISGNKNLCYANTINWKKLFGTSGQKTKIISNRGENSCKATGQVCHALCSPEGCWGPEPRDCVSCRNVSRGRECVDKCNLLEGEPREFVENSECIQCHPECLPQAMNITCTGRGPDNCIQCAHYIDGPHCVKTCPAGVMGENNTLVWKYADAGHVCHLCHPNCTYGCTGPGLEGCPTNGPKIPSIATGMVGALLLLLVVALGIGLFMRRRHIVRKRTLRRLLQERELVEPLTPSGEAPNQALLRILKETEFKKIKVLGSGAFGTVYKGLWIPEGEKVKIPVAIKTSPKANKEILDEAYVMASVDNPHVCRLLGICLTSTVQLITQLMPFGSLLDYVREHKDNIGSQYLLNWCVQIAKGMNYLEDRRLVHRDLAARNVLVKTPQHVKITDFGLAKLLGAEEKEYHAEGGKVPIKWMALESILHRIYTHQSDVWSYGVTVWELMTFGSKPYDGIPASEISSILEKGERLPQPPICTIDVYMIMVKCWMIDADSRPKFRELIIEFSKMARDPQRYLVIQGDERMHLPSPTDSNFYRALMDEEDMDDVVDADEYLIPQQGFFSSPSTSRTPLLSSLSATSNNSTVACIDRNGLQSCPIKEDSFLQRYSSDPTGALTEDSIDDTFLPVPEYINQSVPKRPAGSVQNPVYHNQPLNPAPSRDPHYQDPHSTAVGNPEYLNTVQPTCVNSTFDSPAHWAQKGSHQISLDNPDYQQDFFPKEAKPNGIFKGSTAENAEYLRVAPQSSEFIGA
Threshold 0.9 nM. IC50 below it: yes. IC50 at it or above: no.

Some solved cases for reference:
CN(C)Cc1ccc(-c2cnc(Nc3ccnc(-c4cnn(S(=O)(=O)C5CC5)c4)n3)cc2N[C@H]2CC[C@@](C)(O)CC2)nc1 ... yes
CN(C)C[C@H]1CC[C@@H](Nc2cc(Nc3ccnc(-c4cnn(S(=O)(=O)C5CC5)c4)n3)ncc2-c2cc(C(C)(C)O)c(F)cn2)CC1 ... yes
O=S(=O)(C1CC1)n1cc(-c2nccc(Nc3cc(N[C@H]4CC[C@@H](CO)CC4)c(-c4cc(CN5CCC(F)(F)CC5)ccn4)cn3)n2)cn1 ... no
CC(O)c1cccc(-c2cnc(Nc3ccnc(-c4cnn(S(=O)(=O)C5CC5)c4)n3)cc2NC2CCC(C)(O)CC2)n1 (stereo not drawn) ... no
COC1CN(c2ccc(-c3cnc(Nc4ccnc(-c5cnn(S(=O)(=O)C6CC6)c5)n4)cc3N[C@H]3CC[C@@H](CO)CC3)nc2)C1 ... no
CC(C)(O)[C@H]1CC[C@@H](Nc2cc(Nc3ccnc(-c4cnn(S(=O)(=O)C5CC5)c4)n3)ncc2-c2ccc(CN3CCOCC3)cn2)CC1 ... yes
CC(C)(O)[C@H]1CC[C@@H](Nc2cc(Nc3ccnc(-c4cnn(S(=O)(=O)C5CC5)c4)n3)ncc2-c2cnc(N3CCC(F)(F)CC3)cn2)CC1 ... no
CN(C)Cc1ccc(-c2cnc(Nc3ccnc(-c4cnn(S(=O)(=O)C5CC5)c4)n3)cc2N[C@H]2CC[C@@H](C(C)(C)O)CC2)nc1 ... yes

Query block: Decide: IC50 of `O=S(=O)(C1CC1)n1cc(-c2nccc(Nc3cc(N[C@H]4CC[C@@H](CO)CC4)c(-c4ccc(N5CCC(F)(F)CC5)nn4)cn3)n2)cn1` strictly below 0.9 nM?
Result block: no

Query block: Decide: IC50 of `COC1CN(c2ccc(-c3cnc(Nc4ccnc(-c5cnn(S(=O)(=O)C6CC6)c5)n4)cc3N[C@H]3CC[C@@H](C(C)(C)O)CC3)nc2)C1` strictly below 0.9 nM?
Result block: no

Query block: Decide: IC50 of `C[C@]1(O)CC[C@@H](Nc2cc(Nc3ccnc(-c4cnn(S(=O)(=O)C5CC5)c4)n3)ncc2-c2cc(N3CCOCC3)ccn2)CC1` strictly below 0.9 nM?
Result block: no

Query block: Decide: IC50 of `CC(C)(O)c1cnc(-c2cnc(Nc3ccnc(-c4cnn(S(=O)(=O)C5CC5)c4)n3)cc2N[C@H]2CC[C@@](C)(O)CC2)cn1` strictly below 0.9 nM?
Result block: yes

Query block: Decide: IC50 of `C[C@]1(O)CC[C@@H](Nc2cc(Nc3ccnc(-c4cnn(S(=O)(=O)C5CC5)c4)n3)ncc2-c2ccc(N3CCOCC3)cn2)CC1` strictly below 0.9 nM?
Result block: yes

Query block: Decide: IC50 of `CN(C)CCOc1cnc(-c2cnc(Nc3ccnc(-c4cnn(S(=O)(=O)C5CC5)c4)n3)cc2N[C@H]2CC[C@@H](C(C)(C)O)CC2)cn1` strictly below 0.9 nM?
Result block: yes

----------
target: EGFR del19/C797S (Homo sapiens, UniProt P00533, C797S/DEL746-750); test: Biochemical EGFR kinase assay (Lance Ultra TR-FRET), double mutant del19/C797S; conditions: IC50 del19/C797S (nM) 100 μM ATP, 100 μM ATP
Threshold 5 nM. IC50 below it: Y. IC50 at it or above: N.

Some solved cases for reference:
O=S(=O)(C1CC1)n1cc(-c2nccc(Nc3cc(N[C@H]4CC[C@@H](CO)CC4)c(-c4cc(C(F)F)ccn4)cn3)n2)cn1 ... Y
CC(C)(O)c1cnc(-c2cnc(Nc3ccnc(-c4cnn(S(=O)(=O)C5CC5)c4)n3)cc2N[C@H]2CC[C@@H](C(C)(C)O)CC2)cn1 ... Y
O=S(=O)(C1CC1)n1cc(-c2nccc(Nc3cc(N[C@H]4CC[C@@H](CCO)CC4)c(-c4cc(C(F)F)ccn4)cn3)n2)cn1 ... N

Query block: Decide: IC50 of `C[C@]1(O)CC[C@@H](Nc2cc(Nc3ccnc(-c4cnn(S(=O)(=O)C5CC5)c4)n3)ncc2-c2cnc(N3CCC(F)(F)CC3)cn2)CC1` strictly below 5 nM?
Result block: N

Query block: Decide: IC50 of `C[C@]1(O)CC[C@@H](Nc2cc(Nc3ccnc(-c4cnn(S(=O)(=O)C5CC5)c4)n3)ncc2-c2cc(CN3CCC(F)(F)CC3)ccn2)CC1` strictly below 5 nM?
Result block: N

Query block: Decide: IC50 of `C[C@]1(O)CC[C@@H](Nc2cc(Nc3ccnc(-c4cnn(S(=O)(=O)C5CC5)c4)n3)ncc2-c2cccc(CO)n2)CC1` strictly below 5 nM?
Result block: Y

Query block: Decide: IC50 of `C[C@]1(O)CC[C@@H](Nc2cc(Nc3ccnc(-c4cnn(S(=O)(=O)C5CC5)c4)n3)ncc2-c2ccc(N3CC4(COC4)C3)nn2)CC1` strictly below 5 nM?
Result block: Y

Query block: Decide: IC50 of `CC(C)(O)c1cc(-c2cnc(Nc3ccnc(-c4cnn(S(=O)(=O)C5CC5)c4)n3)cc2N[C@H]2CC[C@@H](C(C)(C)O)CC2)ncc1F` strictly below 5 nM?
Result block: N

Query block: Decide: IC50 of `CC(C)(O)c1ccnc(-c2cnc(Nc3ccnc(-c4cnn(S(=O)(=O)C5CC5)c4)n3)cc2N[C@H]2CC[C@@H](CO)CC2)c1` strictly below 5 nM?
Result block: Y

Query block: Decide: IC50 of `O=S(=O)(C1CC1)n1cc(-c2nccc(Nc3cc(N[C@H]4CC[C@](O)(CO)CC4)c(-c4ccccn4)cn3)n2)cn1` strictly below 5 nM?
Result block: Y

Query block: Decide: IC50 of `C[C@]1(O)CC[C@@H](Nc2cc(Nc3ccnc(-c4cnn(S(=O)(=O)C5CC5)c4)n3)ncc2-c2cc(N3CCC(F)(F)CC3)ccn2)CC1` strictly below 5 nM?
Result block: N

Query block: Decide: IC50 of `O=S(=O)(C1CC1)n1cc(-c2nccc(Nc3cc(N[C@H]4CC[C@H](CCO)CC4)c(-c4ccc(C(F)F)cn4)cn3)n2)cn1` strictly below 5 nM?
Result block: N

----------
molecular target: EGFR del19/C797S (Homo sapiens, UniProt P00533, C797S/DEL746-750); assay: Biochemical EGFR kinase assay (Lance Ultra TR-FRET), double mutant del19/C797S; settings: Km ATP; read-out: IC50 del19/C797S (nM) Km ATP
Threshold 1 nM. IC50 below it: Yes. IC50 at it or above: No.

Some solved cases for reference:
C[C@]1(O)CC[C@@H](Nc2cc(Nc3ccnc(-c4cnn(S(=O)(=O)C5CC5)c4)n3)ncc2-c2ccc(C(F)(F)F)nn2)CC1 ... No
CN1CCC(Oc2ccc(-c3cnc(Nc4ccnc(-c5cnn(S(=O)(=O)C6CC6)c5)n4)cc3N[C@H]3CC[C@@H](F)CC3)nc2)CC1 ... Yes
CC(C)(O)c1cnc(-c2cnc(Nc3ccnc(-c4cnn(S(=O)(=O)C5CC5)c4)n3)cc2N[C@H]2CC[C@@H](C(C)(C)O)CC2)cn1 ... Yes
COC1CN(c2ccc(-c3cnc(Nc4ccnc(-c5cnn(S(=O)(=O)C6CC6)c5)n4)cc3N[C@H]3CC[C@@H](CN(C)C)CC3)nc2)C1 ... Yes
CN1CCN(Cc2ccc(-c3cnc(Nc4ccnc(-c5cnn(S(=O)(=O)C6CC6)c5)n4)cc3N[C@H]3CC[C@@](C)(O)CC3)nc2)CC1 ... Yes
C[C@]1(O)CC[C@@H](Nc2cc(Nc3ccnc(-c4cnn(S(=O)(=O)C5CC5)c4)n3)ncc2-c2cc(CN3CCC(F)(F)CC3)ccn2)CC1 ... No
C[C@]1(O)CC[C@@H](Nc2cc(Nc3ccnc(-c4cnn(S(=O)(=O)C5CC5)c4)n3)ncc2-c2ccc(N3CCC(O)CC3)cn2)CC1 ... Yes
C[C@]1(O)CC[C@@H](Nc2cc(Nc3ccnc(-c4cnn(S(=O)(=O)C5CC5)c4)n3)ncc2-c2cc(OC(F)F)ccn2)CC1 ... No

Query block: Decide: IC50 of `CC(C)Nc1cc(Nc2ccnc(-c3cnn(S(=O)(=O)C4CC4)c3)n2)ncc1-c1ccc(CN2CCOCC2)cn1` strictly below 1 nM?
Result block: No

Query block: Decide: IC50 of `CC(C)(O)c1cc(-c2cnc(Nc3ccnc(-c4cnn(S(=O)(=O)C5CC5)c4)n3)cc2N[C@H]2CC[C@@](C)(O)CC2)ncc1F` strictly below 1 nM?
Result block: No

Query block: Decide: IC50 of `C[C@]1(O)CC[C@@H](Nc2cc(Nc3ccnc(-c4cnn(S(=O)(=O)C5CC5)c4)n3)ncc2-c2cnc(OC(F)F)cn2)CC1` strictly below 1 nM?
Result block: No
